biological target: Gal(b1-4)GlcNAc(b1-3)Gal(b1-4)[Fuc(a1-3)]GlcNAc(b1-3)Gal(b1-4)[Fuc(a1-3)]GlcNAc; assay: glycan array binding signal (z-score within array); higher = stronger binding; conditions: glycan notation: IUPAC condensed, linker removed
Only a selection was taken, and the strongest signals are over-represented in it overall.
Entries and their glycan array binding signal (z-score)
API doc: respond with a numeric literal and nothing else, no unit.

binder | glycan array binding signal (z-score)
SP15308F-bth-333-19-333 (Bacteroides thetaiotaomicron) (protein) SCNNEWESEQYVQMVSFKAPVNAQGVTPIYIRYKPEGKVTYQLPLIVSGSTMNSKDLNVHVGLDLDTLDVLNVEHFGSRKELFFKPLENKYYEFPETVQIPAGECTSLLPIDFALKDLDQVDKWVLPLAIQSNDPSHNYQANPRKFYRRAMLRISPFNDYSGQYSATAYKVYFKGNEKEAIVPEYHTSYVIDDKTIFFYAGLIDIDRLDRKYYKIKFEFTEEKIDLQTRKLKISSDNEDINLVVKGQPSYTVEEEMDATRPYLKHIYVTINNLEYEFTDYTSVPGYPLEYVVKGSLTMERKINTQIPDEDQAIEW | 0.753

Proceeding to the next binder to report its glycan array binding signal (z-score).
Query: // Input: Arath Fbox LD (Arabidopsis thaliana) (protein) EFSVWLEKASGKRCLMLSAMNLSIIWGDNPQYWQWIPIPESRFEKVAKLRDVCWFEIRGRTNTRVLSPRTRYSAYIVFKGVDKCYGFQNVAIEAAVGVVGQEPSRRLICFSEAIRRGRRNVVKPKQREDGWMEIELGEFFNDGGIMDNDEIEMSALETKQLNRKCGLIIQGIEIRPAKILAAASFLEQKLISEEDLNSAVDHHHHHH . Output its glycan array binding signal (z-score) only.
Reply: -0.413
